target: T1, cell surface human mesothelin (MSLN) (human, UniProt Q13421 296-598); experiment: flow cytometry, NCI-H226 cells + 20 nM soluble MSLN
T1 construct: whole, on cells; also called cell surface MSLN
T1 sequence (Q13421 other isoform, or with tags, fused parts or gaps limits assumed): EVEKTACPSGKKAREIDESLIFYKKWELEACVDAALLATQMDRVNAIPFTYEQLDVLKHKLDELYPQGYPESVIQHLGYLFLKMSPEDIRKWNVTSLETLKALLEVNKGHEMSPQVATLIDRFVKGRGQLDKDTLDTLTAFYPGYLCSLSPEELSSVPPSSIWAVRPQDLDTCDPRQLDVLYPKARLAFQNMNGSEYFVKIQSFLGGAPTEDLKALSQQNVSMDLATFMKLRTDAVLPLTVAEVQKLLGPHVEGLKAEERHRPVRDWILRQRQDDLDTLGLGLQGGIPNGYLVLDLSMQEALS
// reported Emax (MFI) for each item listed

binder	Emax (MFI)
FS22-053-008-AA/FS28-256-001 mAb^2 (bispecific antibody, human IgG1, kappa, L234A L235A, V domains shown) VH: EVQLLESGGGLVQPGGSLRLSCAASGFTFTETYMSWVRQAPGKGLEWVSNISPTYSTTNYADSVKGRFTISRDNSKNTLYLQMNSLRAEDTAVYYCARYNSYQGGLDYWGQGTLVTVSS VL: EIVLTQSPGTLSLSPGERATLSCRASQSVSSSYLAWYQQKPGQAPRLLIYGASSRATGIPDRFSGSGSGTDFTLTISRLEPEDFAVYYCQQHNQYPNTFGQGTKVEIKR	608000 MFI
FS22-053-008-AA/FS28-256-027 mAb^2 (bispecific antibody, human IgG1, kappa, L234A L235A, V domains shown) VH: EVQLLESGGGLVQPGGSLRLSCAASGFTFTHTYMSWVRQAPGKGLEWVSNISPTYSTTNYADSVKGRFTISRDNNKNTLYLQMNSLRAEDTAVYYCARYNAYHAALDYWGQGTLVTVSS VL: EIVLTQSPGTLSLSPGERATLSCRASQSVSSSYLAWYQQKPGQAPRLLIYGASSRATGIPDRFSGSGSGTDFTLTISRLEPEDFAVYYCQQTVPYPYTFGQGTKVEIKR	964000 MFI
FS22-053-008-AA/FS28-256-014 mAb^2 (bispecific antibody, human IgG1, kappa, L234A L235A, V domains shown) VH: EVQLLESGGGLVQPGGSLRLSCAASGFTFTDTYMSWVRQAPGKGLEWVSNISPTYSTTNYADSVKGRFTISRDNSKNTLYLQMNSLRAEDTAVYYCARYNAYAAGLDYWGQGTLVTVSS VL: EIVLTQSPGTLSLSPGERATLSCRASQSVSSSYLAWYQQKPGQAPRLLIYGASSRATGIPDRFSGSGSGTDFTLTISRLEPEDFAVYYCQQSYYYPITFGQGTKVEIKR	616000 MFI
